- TARGET_DESC: recombinant human IL-21 (human, UniProt Q9HBE4 30-162, limits assumed)
- Sequence (Q9HBE4 30-162 limits assumed, form in doubt): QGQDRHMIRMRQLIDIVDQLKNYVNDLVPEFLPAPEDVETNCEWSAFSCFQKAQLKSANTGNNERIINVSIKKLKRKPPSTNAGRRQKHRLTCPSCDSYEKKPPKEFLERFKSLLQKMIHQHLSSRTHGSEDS
- TEST_NAME: cell-based or functional assay
READOUT_LABEL: IC50 in NK-92 cell assay (IFNγ, 200 pM IL-21) (pM)
Report the value in pM with no unit label.

stdin: Report IC50 in NK-92 cell assay (IFNγ, 200 pM IL-21) for K44VHa-N56Q (MEDI7169) (antibody, V domains shown) VH: QVQLVQSGAEVKKPGASVKVSCKASGYTFTDYWMHWVRQAPGQGLEWMGTIDPSDQYTIYSQNFKGRVTMTRDTSTSTVYMELSSLRSEDTAVYYCARYGFAMDYWGQGTLVTVSS VL: DIQLTQSPSSLSASVGDRVTITCRASQDISNFLNWYQQKPGKAVKLLIYYTSRLHSGVPSRFSGSGSGTDYTLTISSLQPEDFATYYCQQGHTLPRTFGGGTKVEIK
stdout: 92.7

stdin: Report IC50 in NK-92 cell assay (IFNγ, 200 pM IL-21) for K44VHa6-N56Q (antibody, IgG1, V domains shown) VH: QVQLVQSGAEVKKPGASVKVSCKASGYTFTDYWMHWVRQAPGQGLEWMGTIDPSDQYTIYSQNFKGRVTMTVDESTSTVYMELSSLRSEDTAVYYCARYGFAMDYWGQGTLVTVSS VL: DIQLTQSPSSLSASVGDRVTITCRASQDISNFLNWYQQKPGKAVKLLIYYTSRLHSGVPSRFSGSGSGTDYTLTISSLQPEDFATYYCQQGHTLPRTFGGGTKVEIKR
stdout: 54.8

stdin: Report IC50 in NK-92 cell assay (IFNγ, 200 pM IL-21) for murine monoclonal antibody 8B6 (antibody, V domains shown, also called 8B6.1) VH: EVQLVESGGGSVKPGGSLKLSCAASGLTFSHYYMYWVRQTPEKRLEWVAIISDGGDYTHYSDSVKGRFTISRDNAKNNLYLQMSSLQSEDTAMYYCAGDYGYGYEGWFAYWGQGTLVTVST VL: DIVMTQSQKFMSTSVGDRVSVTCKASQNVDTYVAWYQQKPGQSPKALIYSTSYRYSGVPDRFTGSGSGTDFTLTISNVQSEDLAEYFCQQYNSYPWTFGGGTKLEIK
stdout: 944

stdin: Report IC50 in NK-92 cell assay (IFNγ, 200 pM IL-21) for K2Ha-N56Q (antibody, human IgG1, kappa, V domains shown) VH: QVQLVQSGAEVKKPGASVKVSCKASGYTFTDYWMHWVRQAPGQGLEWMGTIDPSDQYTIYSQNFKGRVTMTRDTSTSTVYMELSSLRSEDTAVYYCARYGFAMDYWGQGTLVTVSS VL: DIQLTQSPSSLSASVGDRVTITCRASQDISNFLNWYQQKPGKAVKLLIYYTSRLHSGVPSRFSGSGSGTDYTLTISSLQPEDFATYFCQQGHTLPRTFGGGTKVEIKR
stdout: 99

stdin: Report IC50 in NK-92 cell assay (IFNγ, 200 pM IL-21) for murine monoclonal antibody 19E3 (antibody, V domains shown, also called 19E3.1) VH: QVQLQQPGSELVMPGASVKMSCKASGYIFTDYWMHWVKQRPGQGLEWIGTIDPSDNYTIYSQNFKGKATLTVDESSSTAYMLLSSLTSEDSAVYFCARYGFAMDYWGQGTSVTVSS VL: DIQLTQTTSSLSASLGDRVTISCRASQDISNFLNWYQQTPDGTVKLLIYYTSRLHSGVPSRFSGSGSGTDYSLTISNLEQEDIATYFCQQGHTLPRTFGGGTKLEIK
stdout: 41

stdin: Report IC50 in NK-92 cell assay (IFNγ, 200 pM IL-21) for murine monoclonal antibody 9F11 (antibody, V domains shown, also called 9F11.1) VH: EVELVESGGGLVQPGGSMKLSCAASGFTFSDAWMDWVRQSPEKGLEWVAEIRSEADNHPTYYAESVKGRFTISRDDSKSSVYLQMNSLRAEDSGIYYCTEYDYEGFVHWGQGTLVTVSA VL: DIVLTQSPASLAVSLGQRATISCRASKSVSTYGYSYMHWYQQKPGQPPKLLIYLASNLESGVPARFSGSGSGTDFTLNIHPVEEEDAATYYCQHSRELPLTFGAGTKLELK
stdout: 462
